target: MIST (Homo sapiens); construct: the DNA-tagged SH2 domain concentrations used in this study were <0.1 nM; made in house; host or cells: HEK293 (transient transfection, unpurified extract); assay: biochemical; format: binding; details: read-out: percent of DMSO vehicle control
Sequence (Q7Z7G1 309-419 limits assumed): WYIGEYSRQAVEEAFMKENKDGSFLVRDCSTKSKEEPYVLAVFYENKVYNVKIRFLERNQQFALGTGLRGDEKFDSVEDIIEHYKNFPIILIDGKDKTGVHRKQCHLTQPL
Non-standard residues stand in square brackets, D forms with d. Residues, ends and D or L forms follow the SMILES beside them. *: point of attachment. pY = N[C@@H](Cc1ccc(OP(=O)(O)O)cc1)C(=O)O; Caffeoyl = O=C(/C=C/c1ccc(O)c(O)c1)*
Hi there, I'd appreciate the recorded percent of DMSO vehicle control at 10 µM for every entry that follows.
Numbers only, in %.

MOLECULE	SYSTEM	percent of DMSO vehicle control at 10 µM / %
NC(=O)CC[C@H](NC(=O)[C@@H]1CC[C@@H]2CCN(C(=O)CCCCCC#Cc3cccc4c3CN(C3CCC(=O)NC3=O)C4=O)C[C@H](NC(=O)c3cc4cc(C(F)(F)P(=O)(O)O)ccc4[nH]3)C(=O)N21)C(=O)NC(c1ccccc1)c1ccccc1 (stereo partly shown)	MIST (Homo sapiens)	104
CC(=O)N[C@@H](Cc1ccc(CP(=O)(O)O)cc1)C(=O)NC1(C(=O)N[C@@H](CC(N)=O)C(=O)NCCCc2c(O)ccc3ccccc23)CCCCC1	MIST (Homo sapiens)	102
CC(=O)N1CC[C@H]2CC[C@@H](C(=O)N[C@@H](CCC(N)=O)C(=O)NC(c3ccccc3)c3ccccc3)N2C(=O)[C@@H](NC(=O)c2cc3cc(C(F)(F)P(=O)(O)O)ccc3[nH]2)C1	MIST (Homo sapiens)	104

Then there is this molecule:
Q) Specify percent of DMSO vehicle control at 10 µM for CC[C@H](C)[C@H](NC(=O)[C@H](CCC(=O)O)NC(=O)[C@H](CCC(=O)O)NC(=O)[C@H](Cc1ccc(OP(=O)(O)O)cc1)NC(=O)/C=C/c1ccc(O)c(O)c1)C(=O)N[C@@H](CCC(=O)O)C(=O)O [Caffeic acid-pYEEIE] (Caffeoyl-[pY]EEIE-OH) and stop.
A) 72.9

###

Hi there, I'd appreciate the recorded percent of DMSO vehicle control at 10 µM for every entry that follows.
biological target: TNS1 (Homo sapiens, UniProt Q9HBL0); construct: made in house; host or cells: HEK293 (transient transfection), unpurified extract; assay: biochemical; format: binding; details: read-out: percent of DMSO vehicle control
Sequence (Q9HBL0 whole entry): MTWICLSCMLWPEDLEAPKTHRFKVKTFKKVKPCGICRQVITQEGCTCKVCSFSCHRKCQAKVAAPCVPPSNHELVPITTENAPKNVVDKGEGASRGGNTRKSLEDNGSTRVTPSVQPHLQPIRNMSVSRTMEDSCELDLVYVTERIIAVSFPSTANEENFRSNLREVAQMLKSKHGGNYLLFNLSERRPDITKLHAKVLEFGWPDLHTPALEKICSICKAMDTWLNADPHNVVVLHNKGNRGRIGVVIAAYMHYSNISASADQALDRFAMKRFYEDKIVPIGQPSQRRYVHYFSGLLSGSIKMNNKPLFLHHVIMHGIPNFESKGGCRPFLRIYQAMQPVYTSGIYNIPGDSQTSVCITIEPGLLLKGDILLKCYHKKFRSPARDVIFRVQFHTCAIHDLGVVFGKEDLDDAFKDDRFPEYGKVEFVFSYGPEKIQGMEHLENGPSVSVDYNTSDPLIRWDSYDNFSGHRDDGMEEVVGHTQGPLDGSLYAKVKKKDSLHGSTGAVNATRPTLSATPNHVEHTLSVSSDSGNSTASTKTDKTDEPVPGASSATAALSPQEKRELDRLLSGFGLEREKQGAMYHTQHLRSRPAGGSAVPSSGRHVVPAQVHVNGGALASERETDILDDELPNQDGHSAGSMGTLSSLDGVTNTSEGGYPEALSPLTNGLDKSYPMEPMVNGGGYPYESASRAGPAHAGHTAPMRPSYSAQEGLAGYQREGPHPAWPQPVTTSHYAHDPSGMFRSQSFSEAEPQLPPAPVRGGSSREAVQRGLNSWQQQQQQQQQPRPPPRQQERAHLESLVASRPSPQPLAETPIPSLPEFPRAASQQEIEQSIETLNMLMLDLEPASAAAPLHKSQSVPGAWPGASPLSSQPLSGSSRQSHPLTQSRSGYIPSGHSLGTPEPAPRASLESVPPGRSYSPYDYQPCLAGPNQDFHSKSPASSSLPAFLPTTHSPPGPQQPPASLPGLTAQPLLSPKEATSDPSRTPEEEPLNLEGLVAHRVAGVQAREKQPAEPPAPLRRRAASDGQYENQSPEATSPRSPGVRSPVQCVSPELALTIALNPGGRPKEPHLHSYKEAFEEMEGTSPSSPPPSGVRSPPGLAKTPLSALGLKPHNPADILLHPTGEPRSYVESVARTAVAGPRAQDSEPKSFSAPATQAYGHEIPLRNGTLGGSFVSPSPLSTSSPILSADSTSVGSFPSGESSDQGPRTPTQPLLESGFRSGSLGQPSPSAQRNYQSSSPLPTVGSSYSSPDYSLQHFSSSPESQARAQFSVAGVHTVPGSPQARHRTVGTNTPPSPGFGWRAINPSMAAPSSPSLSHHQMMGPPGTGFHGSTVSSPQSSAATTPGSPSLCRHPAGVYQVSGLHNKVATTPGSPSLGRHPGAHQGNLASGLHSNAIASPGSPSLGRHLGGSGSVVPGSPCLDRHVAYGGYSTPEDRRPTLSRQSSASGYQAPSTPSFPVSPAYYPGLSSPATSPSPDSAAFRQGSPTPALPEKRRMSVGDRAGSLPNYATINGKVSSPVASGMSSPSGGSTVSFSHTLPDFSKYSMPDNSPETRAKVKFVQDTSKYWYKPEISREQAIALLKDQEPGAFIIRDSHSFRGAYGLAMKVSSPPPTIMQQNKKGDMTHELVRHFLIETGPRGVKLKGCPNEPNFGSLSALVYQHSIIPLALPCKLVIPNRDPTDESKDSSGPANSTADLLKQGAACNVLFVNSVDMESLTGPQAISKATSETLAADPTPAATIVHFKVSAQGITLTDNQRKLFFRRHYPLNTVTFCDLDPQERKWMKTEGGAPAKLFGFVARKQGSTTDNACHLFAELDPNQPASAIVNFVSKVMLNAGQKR
Non-standard residues stand in square brackets, D forms with d. Residues, ends and D or L forms follow the SMILES beside them. *: point of attachment. pY = N[C@@H](Cc1ccc(OP(=O)(O)O)cc1)C(=O)O; Caffeoyl = O=C(/C=C/c1ccc(O)c(O)c1)*
Answers are plain numbers, in %.

MOLECULE	percent of DMSO vehicle control at 10 µM, %
CC(=O)N1CC[C@H]2CC[C@@H](C(=O)N[C@@H](CCC(N)=O)C(=O)NC(c3ccccc3)c3ccccc3)N2C(=O)[C@@H](NC(=O)c2cc3cc(C(F)(F)P(=O)(O)O)ccc3[nH]2)C1	152

Could I get percent of DMSO vehicle control at 10 µM for every one of these entries?
1. CC(=O)N[C@@H](Cc1ccc(CP(=O)(O)O)cc1)C(=O)NC1(C(=O)N[C@@H](CC(N)=O)C(=O)NCCCc2c(O)ccc3ccccc23)CCCCC1
2. CC[C@H](C)[C@H](NC(=O)[C@H](CCC(=O)O)NC(=O)[C@H](CCC(=O)O)NC(=O)[C@H](Cc1ccc(OP(=O)(O)O)cc1)NC(=O)/C=C/c1ccc(O)c(O)c1)C(=O)N[C@@H](CCC(=O)O)C(=O)O [Caffeic acid-pYEEIE] (Caffeoyl-[pY]EEIE-OH)
3. NC(=O)CC[C@H](NC(=O)[C@@H]1CC[C@@H]2CCN(C(=O)CCCCCC#Cc3cccc4c3CN(C3CCC(=O)NC3=O)C4=O)C[C@H](NC(=O)c3cc4cc(C(F)(F)P(=O)(O)O)ccc4[nH]3)C(=O)N21)C(=O)NC(c1ccccc1)c1ccccc1 (stereo partly shown)

A)
[16.4, 25.5, 113]
